The reported numbers originate from patent US20140249172A1.

Assay: Blood levels of free naltrexone and free 6-beta-naltrexol following intranasal administration
Format: in vivo, human
Conditions: both sexes, human, in vivo, 2 mg, average of 8 subjects; 60 min; read-out: Naltrexone-free blood level, Avg.
Parameter measured: concentration at 60 min (ng/mL)
Provide the reading as a plain figure in ng/mL.

Could you tell me which concentration at 60 min is on file for O=C1CC[C@@]2(O)[C@H]3Cc4ccc(O)c5c4[C@@]2(CCN3CC2CC2)[C@H]1O5 [Naltrexone, naltrexone] ?
3.24

---

Assay: Blood levels of free naltrexone and free 6-beta-naltrexol following intranasal administration
Assay type: in vivo, human
Conditions: both sexes, human, in vivo, 2 mg, average of 8 subjects; 30 min; read-out: Naltrexone-free blood level, Avg.
Parameter measured: concentration at 30 min (ng/mL)
Provide the reading as a plain figure in ng/mL.

Could you tell me which concentration at 30 min is on file for O=C1CC[C@@]2(O)[C@H]3Cc4ccc(O)c5c4[C@@]2(CCN3CC2CC2)[C@H]1O5 [Naltrexone, naltrexone] ?
3.66
